Values compiled from patent US20200239543A1.

Give pKd for every item shown.
# EXPERIMENTAL TARGET: T1, human CD47 (human, UniProt Q08722 19-139)
# T1 construct: extracellular domain; also called CD47 ECD
# T1 sequence (Q08722 19-139 limits assumed): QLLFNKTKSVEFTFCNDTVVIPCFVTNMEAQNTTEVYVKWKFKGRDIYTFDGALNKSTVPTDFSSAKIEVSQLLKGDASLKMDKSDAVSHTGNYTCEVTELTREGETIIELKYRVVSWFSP
# TEST METHOD NOTES: SPR; protein made in mammalian cell
One number for each entry, as −log10 of the molar value.

Worked set:
BINDER	pKd
SIRP-α D1 variant polypeptide of SEQ ID NO: 73 (receptor, engineered SIRP-α D1 domain) EEELQVIQPDKSVLVAAGETATLRCTITSLFPVGPIQWFRGAGPGRELIYNQREGPFPRVTTVSDTTKRNNMDFSIRIGNITPADAGTYYCVKFRKGSPDDVEFKSGAGTELSVRAKPS	9.35
SIRP-α D1 variant polypeptide of SEQ ID NO: 72 (receptor, engineered SIRP-α D1 domain) EEELQIIQPDKSVLVAAGETATLRCTITSLFPVGPIQWFRGAGPGRELIYNQREGPFPRVTTVSDLTKRNNMDFSIRIGNITPADAGTYYCVKFRKGSPDDVEFKSGAGTELSVRAKPS	9.13
SIRP-α D1 variant polypeptide of SEQ ID NO: 76 (receptor, engineered SIRP-α D1 domain) EEELQVIQPDKSVLVAAGETATLRCTATSLFPVGPIQWFRGAGPGRELIYNQREGPFPRVTTVSDLTKRNNMDFSIRIGNITPADAGTYYCVKFRKGSPDDVEFKSGAGTELSVRAKPS	8.13

Hi there! I need pKd for each item below, if you can.
1. SIRP-α D1 variant polypeptide of SEQ ID NO: 71 (receptor, engineered SIRP-α D1 domain) EEELQVIQPDKSVLVAAGETATLRCTATSLFPVGPIQWFRGAGPGRELIYNQRQGPFPRVTTVSDLTKRNNMDFSIRIGNITPADAGTYYCVKFRKGSPDDVEFKSGAGTELSVRAKPS
2. SIRP-α D1 variant polypeptide of SEQ ID NO: 75 (receptor, engineered SIRP-α D1 domain) EEELQVIQPDKSVLVAAGETATLRCTITSLFPVGPIQWFRGAGPGRELIYNQREGPFPRVTTVSDLTKRNNMDFSIRIGNITPADAGTYYCVKFRKGSPDDVEFKSGAGTELSVRAKPS
3. SIRP-α D1 variant polypeptide of SEQ ID NO: 74 (receptor, engineered SIRP-α D1 domain) EEELQIIQPDKSVLVAAGETATLRCTITSLFPVGPIQWFRGAGPGRELIYNQREGPFPRVTTVSDTTKRNNMDFSIRIGNITPADAGTYYCVKFRKGSPDDVEFKSGAGTELSVRAKPS
4. SIRP-α D1 variant polypeptide of SEQ ID NO: 77 (receptor, engineered SIRP-α D1 domain) EEELQIIQPDKSVLVAAGETATLRCTITSLFPVGPIQWFRGAGPGRVLIYNQRQGPFPRVTTVSDTTKRNNMDFSIRIGNITPADAGTYYCIKFRKGSPDDVEFKSGAGTELSVRAKPS

[8.31, 8.88, 9.56, 9.94]
